I'd be grateful if you could share measured GI50 for these entries.
# Test system: M14 melanoma
# METHOD_DESCRIPTION: NCI tumour cell line growth inhibition, 48 h

Lab note: need GI50 with M14 melanoma for entry `O=C(O)c1cn(C2CC2)c2cc(N3CCN(S(=O)(=O)c4ccc(Cl)c(Cl)c4)CC3)c(F)cc2c1=O` , please look it up.
4.06 µM

Form field - read-out: GI50; system: M14 melanoma; submitted item: `Cc1ccc(C(=O)Nc2ccc(CN3CCN(C)CC3)c(C(F)(F)F)c2)cc1C#Cc1cncc2ncccc12`
0.0877 µM

Form field: GI50 recorded for `Clc1ccccc1-c1nc2ccccc2[nH]1` with M14 melanoma (enter value)
> 100 µM

# get_value(readout= GI50, system= M14 melanoma) for `CCOC(=O)Nc1nc2c(F)c(F)c(F)cc2s1`
> 100 µM
